# protocol summary: BSK_3C_Proliferation: Cell Proliferation Assessment in the BioMAP Diversity Plus: 3C Assay (AID 2283006)
# cond: primary human endothelial cells (HUVEC)
# Procedure: BSK_3C is a cell-based, multiplexed-readout assay that uses umbilical vein endothelium, a human vascular primary cell, with measurements taken at 24 hours after chemical dosing in a 96-well plate.BSK_3C_Proliferation is an assay component measured in the BSK_3C assay. It measures 0.1% sulforhodamine related to cell proliferation using Sulforhodamine staining technology.Data from the assay component BSK_3C_Proliferation was analyzed into 1 assay endpoint. […]
The source made the active and inactive calls. How the source made its calls: active means hit-call score of the fitted dose curve at least 0.9, where 1 is the maximum; inactive means score below 0.9.
Outcome codes: class 1 = active, class 0 = inactive

[
  {
    "smiles data": "COC(=O)CCC(F)(F)C(F)(F)C(F)(F)C(F)(F)F",
    "class label": "class 0"
  },
  {
    "smiles data": "CS(C)(=O)=O",
    "class label": "class 0"
  },
  {
    "smiles data": "CCc1ccc(C(c2ccc(CC)cc2)C(Cl)Cl)cc1",
    "class label": "class 1"
  },
  {
    "smiles data": "CCCCNc1ccccc1",
    "class label": "class 0"
  },
  {
    "smiles data": "C=CC(=O)OCC(F)(F)C(F)(F)C(F)(F)C(F)(F)C(F)(F)C(F)(F)C(F)(F)F",
    "class label": "class 1"
  },
  {
    "smiles data": "O=S(=O)(O)C(F)(F)C(F)(F)C(F)(F)C(F)(F)C(F)(F)C(F)(F)C(F)(F)F",
    "class label": "class 0"
  },
  {
    "smiles data": "CO[Si](OC)(c1ccccc1)c1ccccc1",
    "class label": "class 1"
  },
  {
    "smiles data": "O[Si](c1ccccc1)(c1ccccc1)c1ccccc1",
    "class label": "class 1"
  },
  {
    "smiles data": "O=S(=O)(OCCOC(F)(F)F)C(F)(F)F",
    "class label": "class 0"
  },
  {
    "smiles data": "CCO[Si](CCC(F)(F)C(F)(F)C(F)(F)C(F)(F)C(F)(F)C(F)(F)F)(OCC)OCC",
    "class label": "class 0"
  }
]
